Assay notes: yeast display, Sf9 membrane polyspecificity reagent, FACS + sequencing; frameworks hold sequencing errors
Assay endpoint: polyreactivity (PSR sort gate)

Known results for sequences:
[[record]]
ordered_residues = "QVQLVESGGGLVQAGGSLRLTCAASGRTFAIYAMGWYRQAPRKEREFFDAISWSGGDTYYADSVKGRFTISRDNAKNTVYLQMNSLKAEDTAVYYCAARYIDYEGRDLQYELDYWGQGTQVSVSS"
assay_endpoint = "polyreactivity (PSR sort gate)"
val = "low polyreactivity"

[[record]]
ordered_residues = "QVQLVESGGGLVQAGGSLRLSCAASGSTFHRYTMGWYRQAPGKERELVAAISSGGRTYYADSVKGRFTISRDNAKNTVYLQKNSLKPEDTAVYYCNSRYPRQYWGGYDYWGQGTQVTVSS"
assay_endpoint = "polyreactivity (PSR sort gate)"
val = "high polyreactivity"

[[record]]
ordered_residues = "QVQLLESGGGLVQAGGTLRLSCAASGSIIGRNAMGWYRQAPGKERELVAAITWRTGSTFYADSVKGRFTISRDNAKNTVYLQMNSLKPEDTAVYYCNAAGPAYSYYHWLWGDYNSWRQGTQVTVSS"
assay_endpoint = "polyreactivity (PSR sort gate)"
val = "low polyreactivity"

[[record]]
ordered_residues = "QVQLVESGGGLVQAGGSLRLSCAASGRIFSLNTMGWYRQAPGKERELVATITKRGGNTYYADSVKGRFTISRDNAKNTVYLQMNSLKPEDTAVYYCAVPRSITYRYGYWGQGTQVTVSS"
assay_endpoint = "polyreactivity (PSR sort gate)"
val = "high polyreactivity"


Here's the next entry for you.
Qu. Entry QGHLVESWGGLVQAGGSLRLSCAASGSIFKDNAMGWYRQAPGKERELVAAITWSGGSTYYADSVKGRFTSSRDNANNTVYLQMNSLKAEDTAVDRYKYDYWGQGTQVTVSS : reported polyreactivity (PSR sort gate) = ?
Ans. low polyreactivity
